Data origin, for the record: PubChem BioAssay (NCI)

# Test system: OVCAR-8 ovarian
# METHOD: NCI tumour cell line growth inhibition, 48 h
Recorded TGI by entry

MOLECULE | TGI
CCOC(=O)c1c(C)n(Cc2ccc(Cl)cc2Cl)c2c1cc1oc(=O)c(=O)n3c(Cc4ccccc4)nc2c13 | 25.8 µM
O=C(O)CCC1CCc2cccc3occ1c23 (stereo unspecified) | > 100 µM
CN1C(=O)C(O)CC1c1cccc(F)c1 (stereo unspecified) | > 100 µM
O=[N+]([O-])c1ccc(CS(=O)Cc2ccccc2)cc1 (stereo unspecified) | > 100 µM
Cc1c2cnccc2nc2[nH]c3ccncc3c12 | > 100 µM
N/N=C(\Cc1ccccc1)NN=C(N)N | > 100 µM
C/C=C(/CCCCNCCCC)[Si](C)(C)C | 31.8 µM
O=C(NN1C(=O)CSC1c1ccc(Cl)cc1)c1[nH]c2ccc(F)cc2c1-c1ccccc1 (stereo unspecified) | 20.6 µM
CC(C)=CCC/C(C)=C/Cc1c(O)ccc2c1[nH]c1cc(O)c(C)cc12 | > 25 µM
C=C(C)CCC(C)N1CCC(N2CCC(C(=O)NCCc3ccccc3)CC2)CC1 (stereo unspecified) | > 100 µM
CCOC(=O)N1C2C=C(C)C(C3C(C)C(=O)N31)N(C(=O)c1ccccc1)O2 (stereo unspecified) | > 100 µM
CC(Oc1ccc(OCC2CCCCC2)cc1)C(=O)N(CCO)CCO (stereo unspecified) | > 100 µM
COc1ccc2cc3n(c2c1)CCc1cc(OC)c(OC)cc1-3 | > 100 µM
COc1ccc(-c2ccc(/C=N/n3c(COc4ccc(Cl)cc4)n[nH]c3=S)o2)c([N+](=O)[O-])c1 | > 100 µM
Cc1nnc2sc(-c3ccc(-c4ccccc4Cl)o3)nn12 | 53.1 µM
O=C(Nc1ccc2c(c1)oc(=O)c1ccccc12)C(Cl)Cl | > 100 µM
COc1cc(Oc2c(O)c(C)c(OC)c(C(C)=O)c2O)c(C(C)=O)c(O)c1C | > 100 µM
Cc1cccc(C)c1NC(=O)CCCC(=O)C1CCC/C1=N\NC(=O)C(=O)NN (stereo unspecified) | > 100 µM
CCC1CN2CCc3cc(OC)c(OC)cc3C2CC1CC1c2cc(OC)c(OC)cc2CCN1C(=O)CNC(=O)OC(C)(C)C (stereo unspecified) | > 100 µM
C=C(N=[N+]=[N-])c1cn(C2CC(O)C(CO)O2)c(=O)[nH]c1=O (stereo unspecified) | > 100 µM
CCOC(=O)C(NC(=O)NC(C(=O)OCC)C(=O)OCC)C(=O)OCC | > 100 µM
